# Test system: human adult peripheral blood
# experiment: Adult whole blood assay, TNF / IL-1β ELISA
# Assay type: cell-based
# condition: Homo sapiens; mean, n = 4-9; read-out: Adult WBA TNF EC50
experimental.endpoint: EC50

> print(dat)
                              compound  recorded.value
1  CCOCc1nc2c(N)nc3ccccc3c2n1CC(C)(C)O         1040 nM

---

# Tested on: human newborn cord blood
# experiment: Newborn whole blood assay, TNF / IL-1β ELISA
# Assay type: cell-based
# condition: Homo sapiens; mean, n = 4-9; read-out: Newborn WBA TNF EC50
pEC50: −log10 of the molar value.
experimental.endpoint: pEC50

> print(dat)
                              compound  recorded.value
1  CCOCc1nc2c(N)nc3ccccc3c2n1CC(C)(C)O            5.82
